# measurement.target: huLTBP1 proTGFβ1 (Homo sapiens, UniProt P01137+Q14766)
# Sequence (P01137 30-390): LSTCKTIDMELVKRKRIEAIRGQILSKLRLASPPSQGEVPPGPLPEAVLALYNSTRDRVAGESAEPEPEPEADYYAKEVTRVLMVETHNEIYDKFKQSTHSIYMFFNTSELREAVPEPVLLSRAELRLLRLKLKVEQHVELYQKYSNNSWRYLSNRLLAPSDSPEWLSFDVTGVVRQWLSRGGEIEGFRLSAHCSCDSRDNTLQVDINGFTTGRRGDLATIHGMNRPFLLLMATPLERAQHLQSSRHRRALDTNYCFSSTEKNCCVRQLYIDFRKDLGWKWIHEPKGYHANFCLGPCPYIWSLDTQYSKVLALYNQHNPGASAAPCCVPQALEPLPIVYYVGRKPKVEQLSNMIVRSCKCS
# Sequence (Q14766 347-1721 limits assumed): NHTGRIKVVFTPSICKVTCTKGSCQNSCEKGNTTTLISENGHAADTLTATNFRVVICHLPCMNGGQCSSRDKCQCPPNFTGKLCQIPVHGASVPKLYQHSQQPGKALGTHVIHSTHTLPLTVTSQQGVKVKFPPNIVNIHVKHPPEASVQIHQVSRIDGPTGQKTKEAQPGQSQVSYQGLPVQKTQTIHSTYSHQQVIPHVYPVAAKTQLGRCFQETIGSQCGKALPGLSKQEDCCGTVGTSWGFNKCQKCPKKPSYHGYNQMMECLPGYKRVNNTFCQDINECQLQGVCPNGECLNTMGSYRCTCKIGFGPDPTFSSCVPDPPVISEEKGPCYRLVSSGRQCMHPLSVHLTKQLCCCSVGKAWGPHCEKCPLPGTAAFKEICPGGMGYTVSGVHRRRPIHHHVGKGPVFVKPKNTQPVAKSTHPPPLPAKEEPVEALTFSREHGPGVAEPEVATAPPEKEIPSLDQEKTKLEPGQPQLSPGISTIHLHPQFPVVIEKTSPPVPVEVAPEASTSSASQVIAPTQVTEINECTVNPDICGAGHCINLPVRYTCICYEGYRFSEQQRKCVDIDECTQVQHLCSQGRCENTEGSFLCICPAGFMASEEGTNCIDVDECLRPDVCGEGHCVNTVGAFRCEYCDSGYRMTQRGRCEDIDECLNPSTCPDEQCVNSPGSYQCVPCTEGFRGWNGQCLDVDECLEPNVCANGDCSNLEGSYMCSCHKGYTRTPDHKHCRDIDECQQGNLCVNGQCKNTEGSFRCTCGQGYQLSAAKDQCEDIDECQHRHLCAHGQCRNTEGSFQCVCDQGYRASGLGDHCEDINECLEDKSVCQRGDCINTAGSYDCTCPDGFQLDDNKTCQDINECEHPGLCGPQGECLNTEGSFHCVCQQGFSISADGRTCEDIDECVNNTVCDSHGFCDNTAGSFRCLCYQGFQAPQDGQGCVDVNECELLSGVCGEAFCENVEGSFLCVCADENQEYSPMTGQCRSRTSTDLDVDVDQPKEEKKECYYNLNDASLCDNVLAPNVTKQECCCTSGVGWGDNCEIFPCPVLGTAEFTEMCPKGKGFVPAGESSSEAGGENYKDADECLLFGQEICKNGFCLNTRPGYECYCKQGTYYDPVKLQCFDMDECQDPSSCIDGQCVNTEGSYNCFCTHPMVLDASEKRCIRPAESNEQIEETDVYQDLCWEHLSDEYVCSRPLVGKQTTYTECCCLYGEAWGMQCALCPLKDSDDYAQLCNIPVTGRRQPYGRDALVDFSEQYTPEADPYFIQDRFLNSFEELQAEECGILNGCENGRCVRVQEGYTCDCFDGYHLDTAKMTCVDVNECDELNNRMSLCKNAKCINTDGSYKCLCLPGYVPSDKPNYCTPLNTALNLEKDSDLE
# experiment.notes: Octet (BLI) binding, IgG captured on AHC tips, antigen at 100 nM
# applied.conditions: Table 9; cycle 3; IgG1-agly; 1:1 fit
measurement.label: Hu LTBP1-proTGFβ1 Kon (M⁻¹ s⁻¹)
Only the number, expressed in M⁻¹ s⁻¹, is required.

molecule | measurement.label | units.of.measure | reported.measurement
SR-AB41: cycle 3 light chain-optimized antibody, lineage SR-AB23; CDRs SEQ ID NO: 160-165 (antibody, V domains shown) VH: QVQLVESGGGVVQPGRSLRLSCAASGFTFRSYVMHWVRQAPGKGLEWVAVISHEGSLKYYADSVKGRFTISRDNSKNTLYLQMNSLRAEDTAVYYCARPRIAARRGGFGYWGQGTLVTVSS VL: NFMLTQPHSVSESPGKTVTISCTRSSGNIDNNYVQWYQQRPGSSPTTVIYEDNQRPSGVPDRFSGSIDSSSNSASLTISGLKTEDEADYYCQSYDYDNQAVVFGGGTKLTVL | Hu LTBP1-proTGFβ1 Kon | M⁻¹ s⁻¹ | 203000

Item under review: SR-AB39: cycle 3 light chain-optimized antibody, lineage SR-AB22; CDRs SEQ ID NO: 148-153 (antibody, V domains shown) VH: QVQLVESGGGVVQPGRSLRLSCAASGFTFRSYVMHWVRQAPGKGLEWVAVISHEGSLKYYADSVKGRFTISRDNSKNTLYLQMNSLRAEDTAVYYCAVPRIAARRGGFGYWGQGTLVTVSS VL: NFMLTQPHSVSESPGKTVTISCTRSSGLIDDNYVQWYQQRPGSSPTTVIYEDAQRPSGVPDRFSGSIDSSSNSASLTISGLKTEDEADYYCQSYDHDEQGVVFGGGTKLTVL . Reported Hu LTBP1-proTGFβ1 Kon?
292000

SR-AB44: cycle 3 light chain-optimized antibody, lineage SR-AB23; CDRs SEQ ID NO: 178-183 (antibody, V domains shown) VH: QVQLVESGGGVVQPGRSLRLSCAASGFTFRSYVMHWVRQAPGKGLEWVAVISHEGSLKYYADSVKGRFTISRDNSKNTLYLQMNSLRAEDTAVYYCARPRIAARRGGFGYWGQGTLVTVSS VL: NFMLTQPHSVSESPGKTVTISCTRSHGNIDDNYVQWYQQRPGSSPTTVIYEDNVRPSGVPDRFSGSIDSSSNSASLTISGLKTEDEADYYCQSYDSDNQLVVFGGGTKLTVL ?
280000

SR-AB38: cycle 3 light chain-optimized antibody, lineage SR-AB22; CDRs SEQ ID NO: 142-147 (antibody, V domains shown) VH: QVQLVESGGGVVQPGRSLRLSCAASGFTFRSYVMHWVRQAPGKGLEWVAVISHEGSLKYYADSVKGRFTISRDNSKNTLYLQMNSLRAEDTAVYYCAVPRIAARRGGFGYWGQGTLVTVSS VL: NFMLTQPHSVSESPGKTVTISCTRSSGSIDNNYVQWYQQRPGSSPTTVIYEDFIRPSGVPDRFSGSIDSSSNSASLTISGLKTEDEADYYCQSYDDDLQGVVFGGGTKLTVL ?
327000
